System: A549
method_notes: cells
conditions_used: Homo sapiens, A549, 72 h
Description: Cytotoxicity against human A549 cells assessed as cell viability after 72 hrs by Celltiter-Glo assay
pIC50: −log10 of the molar value.
value_type: pIC50

P: Cc1cc2c(C(N)=O)cccc2n1-c1nc2c(c(NCc3ccccc3)n1)CCCC2
Q: Cc1[nH]c2ccccc2c1-c1nc2c(c(NCc3ccccc3)n1)CCCC2
R: Cc1cc2c(C(N)=O)cccc2n1-c1nc2c(c(NCc3ccccc3)n1)CCNC2
# input Which order do these items fall in when sorted by pIC50 from largest to smallest? Please write the labels in the order that was asked for.
# output P, R, Q
(P: 6.23, R: 5.61, Q: 4.80)

* * *

method_notes: Mean residence time in mouse at 25 mg/kg, po
conditions_used: in vivo
value_type: MRT (h)
Value expressed in h; do not type the unit.

# input Identify measured MRT associated with Cc1cc2c(C(N)=O)cccc2n1-c1nc2c(c(NCc3ccccc3)n1)COCC2
# output 3.05
